# TARGET_DESC: RHOGDI1-RAC1 interaction (Homo sapiens, UniProt P52565)
# Construct: GST; made in house; host or cells: RHOGDI1: E. coli; GerGer-RAC1: insect cells (TNAO38)
# Sequence (P52565 whole entry): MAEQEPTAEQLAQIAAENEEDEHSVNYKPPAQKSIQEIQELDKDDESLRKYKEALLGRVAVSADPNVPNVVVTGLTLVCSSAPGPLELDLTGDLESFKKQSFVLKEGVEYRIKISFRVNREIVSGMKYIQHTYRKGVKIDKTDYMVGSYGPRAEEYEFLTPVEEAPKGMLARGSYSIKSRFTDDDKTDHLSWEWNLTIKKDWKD
# ASSAY: Fluorescence polarization: titration of TAMRA-GDP-bound RAC1 with RHOGDI1 in presence of compound
# Assay type: binding
# CONDITIONS: Cheng-Prusoff equation using data from Figure S6f
ASSAY_ENDPOINT: Ki

Missing value: Ki, RHOGDI1-RAC1 interaction (Homo sapiens, UniProt P52565), entry COC(=O)C1(C(CC(=O)c2cccnc2)c2ccccc2)N=C(c2ccc(Br)cc2)C2C(=O)N(C)C(=O)C21 (stereo not shown) . Fill in? ~2200 nM
